protocol_description: physchem
Format: physicochemical
setup_conditions: 37 °C, pH 1.2, simulated gastric fluid
readout_type: solubility (µg/mL)

a. CCCCC1=NC2(CCCC2)C(=O)N1Cc1ccc(-c2ccccc2-c2nnn[nH]2)cc1 [Irbesartan]
b. Nc1nc2c(ncn2COCCO)c(=O)[nH]1 [Acyclovir]
c. CCCCc1ncc(/C=C(\Cc2cccs2)C(=O)O)n1Cc1ccc(C(=O)O)cc1 [Eprosartan]
I would appreciate it if you could sort these 3 compounds by solubility, starting from the smallest number. Thanks in advance for listing the labels in the requested order.
c, a, b
(c: 795 µg/mL, a: 2420 µg/mL, b: 10500 µg/mL)

----------
protocol_description: physchem
Assay type: physicochemical
setup_conditions: 37 °C, pH 2, simulated gastric fluid
readout_type: solubility (µg/mL)

compound_structure	solubility, µg/mL
Nc1nc2c(ncn2COCCO)c(=O)[nH]1	6000

1. CCCCc1ncc(/C=C(\Cc2cccs2)C(=O)O)n1Cc1ccc(C(=O)O)cc1
2. CCCCC1=NC2(CCCC2)C(=O)N1Cc1ccc(-c2ccccc2-c2nnn[nH]2)cc1
From the items above, decide which of 1 and 2 has the lower solubility reading. Give the chosen item's label as your response.
1
